Where these numbers come from: the supplement of paper PMC10567573

B1: STEAP1 (parent)
chain: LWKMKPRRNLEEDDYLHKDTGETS

Variants of: B1
Run Description: protein stability index of a GFP-peptide fusion (GPS, HEK-293T) (PSI 1-6); higher = more stable;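 also: lentivirally expressed fusions sorted by FACS into six bins by GFP to DsRed ratio, PSI derived from sequencing read proportions per bin multiplied by bin number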
Protocol Conditions: c terminus: a fixed tail appended
Record form. Attribute: protein stability index. Fill in for each entry.
Simply state the number, no unit and no words.

Measured protein stability index of S24F : 4.22

P6H has a reported protein stability index of 4

Field protein stability index (entry H17F ) reads 4.16

The recorded protein stability index for entry D14H equals 4.18

The recorded protein stability index for S24K is 4.47

// protein stability index lookup, variant = M4T , result: 4.62

Field protein stability index (entry R8C ) reads 3.79

Value of measured protein stability index for the entry M4P : 4.41

Measured protein stability index, G21Y : 4.08

The variant listed as E22C has a reported protein stability index of 4

Note to self: protein stability index recorded for K18A was 5.12

Short answer for E12D : protein stability index was 4.46

Kindly note the recorded protein stability index for E12N , which is 4.15

The reported protein stability index of the variant M4Y was 4.41

// protein stability index value for S24Y : 4.11

response.value for D14R (field: protein stability index) = 4.7

Per the records, this variant ( E12R ) has protein stability index equal to 4.07

Per the records, this variant ( G21P ) has protein stability index equal to 4.77

# protein stability index of T23Q = 4.52

So for R7L , the logged protein stability index turned out to be 4.4

protein stability index reading for E11W : 3.22

So for L16M , the logged protein stability index turned out to be 4.24

Memo: E22Y , reported protein stability index: 3.46

Input K3Y . Output protein stability index: 3.81

Field protein stability index (entry D13M ) reads 3.8

protein stability index reading for T20C : 4.31

Recorded result, E12A , protein stability index: 4.06

In plain terms, L1G has a documented protein stability index of 4.75

The variant D14N showed protein stability index equal to 4.4

Briefly, protein stability index measured for L10N : 4.4

Entry H17N — recorded protein stability index = 4.28

K18Y yielded protein stability index of 4.03

Entry E22D ; protein stability index = 4.47

GET /value?item= K18T &field=protein stability index returns 4.6

Record L16T , field protein stability index: 4.74

# protein stability index of T20K = 3.6

// L10T : protein stability index value = 4.69

Reported protein stability index of E11L : 3.88

Given item T23S , the value recorded as its protein stability index is 4.77

Summary for this variant, S24Q : protein stability index is 3.85

Looking up W2K , I found its protein stability index recorded as 4.78

Lab note: measured protein stability index of L16F was 4.26

Briefly, protein stability index measured for Y15H : 4.66

// recorded protein stability index for L16I : 4.23

The reported protein stability index of the variant K5C was 4.45

Noted for W2G : its protein stability index reads 4.96

Briefly, protein stability index measured for N9G : 4.58

For record D19A the listed protein stability index is 3.94

Noted for Y15P : its protein stability index reads 4.81

Query S24V yields protein stability index of 4.38

Measured protein stability index, H17R : 4.41

Looking up T20V , I found its protein stability index recorded as 4.05

The variant H17A showed protein stability index equal to 4.93

So for R7V , the logged protein stability index turned out to be 4.14

For record T20P the listed protein stability index is 4.51

// protein stability index lookup, variant = S24D , result: 4.65

The recorded protein stability index for N9K is 4.44

Value of measured protein stability index for the entry E22M : 3.85

Value of protein stability index reported for the variant L10M is 4.26

Given item T23L , the value recorded as its protein stability index is 4.12

In plain terms, K3E has a documented protein stability index of 5.19

Lab note: measured protein stability index of E12K was 4.25

# variant E12V ; its protein stability index = 4.09

// protein stability index lookup, variant = Y15N , result: 4.57

// L10Q : protein stability index value = 4.72

Given item P6I , the value recorded as its protein stability index is 3.94

Entry D14V ; protein stability index = 4.07

Reported protein stability index of D13C : 3.65

The measured protein stability index associated with D19C reads 3.8

Short answer for S24M : protein stability index was 4.16

Form field protein stability index, entry D14I : 3.84

Record K5M . Reported protein stability index: 4

Given item M4L , the value recorded as its protein stability index is 4.55

Entry G21F , protein stability index reported as 3.92

Entry D13G ; protein stability index = 4.61

For this variant ( E12L ), measured protein stability index is 3.74

// protein stability index value for D14A : 4.21

# protein stability index (variant: E22A ) is 3.92

protein stability index in this record for G21H : 4.42

Record summary for T20F : reported protein stability index = 3.51

Entry R7M ; protein stability index = 4.51
